# Test system: CCRIS mutagenicity, Ames/micronucleus/aberration tests
# assay_overview: CCRIS mutagenicity studies
# measurement_parameters: Test System: AMES SALMONELLA TYPHIMURIUM; Strain/Indicator: TA98; Metabolic Activation: NONE; Method: STANDARD PLATE
Active and inactive are the calls of the source. How the calls were made is not given here.
Field 'call' accepts 1 (yes) (active), 0 (no) (inactive)

Before answering, review these 6 worked examples.
| molecule | class_name |
| --- | --- |
| O=[N+]([O-])c1cc2c3c(ccc2c2ccccc12)[C@H](O)[C@@H](O)C=C3 | 0 (no) |
| O=C([O-])c1ccc2ccccc2c1.[Mn+2].[O-]C(O)c1ccc2ccccc2c1 | 0 (no) |
| C=CCc1ccc(OC)cc1 | 0 (no) |
| CC(C)CCC[C@@H](C)[C@H]1CC[C@H]2[C@@H]3C(=O)C=C4C[C@@H](O)CC[C@]4(C)[C@H]3CC[C@]12C | 0 (no) |
| O=Nc1ccc(Oc2ccccc2)cc1 | 1 (yes) |
| [Cl][Cd][Cl] | 0 (no) |

Outcome logged for "Cc1cc(N)c(C)c([N+](=O)[O-])c1N" in this assay:
0 (no)

How did this test come out for "Clc1ccncc1" ?
0 (no)

State the result this test recorded for "CC(C)OS(C)(=O)=O" .
1 (yes)

How was "C[C@]1(O)CC[C@H]2[C@@H]3CCC4=CC(=O)CC[C@]4(C)[C@@]3(F)[C@@H](O)C[C@@]21C" classified in this test?
0 (no)

Hey, what did the test say about "CCOP(=O)(OCC)Oc1nc(Cl)c(Cl)cc1Cl" ?
0 (no)

Kindly provide the recorded test outcome for the following molecule: "C=CC(=O)OCC"
0 (no)

Which result was noted for this molecule in the test: "CC(C)n1c(/C=C/[C@H](O)C[C@H](O)CC(=O)O)c(-c2ccc(F)cc2)c2ccccc21"
0 (no)

Hey, what did the test say about "Cc1c(N(C)C)c(=O)n(-c2ccccc2)n1C" ?
0 (no)

What did this assay record as the result for "Cc1ccc(N=Nc2c(O)c(C(=O)O)cc3ccccc23)cc1S(=O)(=O)O" ?
0 (no)

Identify the outcome logged in this assay for the molecule shown: "CC/C(C)=N\O"
0 (no)

Returns: the outcome recorded for CCCCC(CC)COP(=O)(OCC(CC)CCCC)OCC(CC)CCCC (configuration not stated) in this assay.
0 (no)

Hi team, can someone confirm the assay call for CC(O)CN1CC(C)OC1=O (configuration not stated) ?
0 (no)

---

# Tested on: CCRIS mutagenicity, Ames/micronucleus/aberration tests
# assay_overview: CCRIS mutagenicity studies
# measurement_parameters: Test System: AMES SALMONELLA TYPHIMURIUM; Strain/Indicator: TA100; Metabolic Activation: NONE; Method: PREINCUBATION
Activity calls are given as the source filed them. How the calls were made is not given here.
Your answer must be one of the following: yes = active, no = inactive

These solved cases illustrate the format of a correct answer.
| molecule | class_name |
| --- | --- |
| c1cnc2cnncc2c1 | no |
| OCCCCO | no |
| COc1ccc(C(=O)c2ccccc2O)c(O)c1 | no |
| CN1CC=C(c2ccccc2)CC1 | no |

I would be grateful if you could indicate the recorded call for "COc1ccc([C@H]2O[C@H]2C)cc1" .
yes

Outcome? "O=[N+]([O-])c1ccc2c(c1)oc1ccccc12"
no

Record request — test call for "CC/C(=C(/c1ccc(OCCN(C)C)cc1)c1ccc(OP(=O)(O)O)cc1)c1ccc(C(C)C)cc1"
no

Could you kindly confirm the outcome this assay logged for "CC=O" ?
no

What did the test return for CCNC(=O)Nc1ccc(OCC(O)CNC(C)(C)C)c(C(C)=O)c1 (stereo not given) ?
no

Any idea what this test logged for "C=C(C)C(=O)/C(=C\C(=O)O)OC" ?
no

Hey, what did the test say about CCSCCC(N)C(=O)O (stereo not given) ?
no

For "CCN(CC)c1ccc(N)cc1" , what call appears in the results of this test?
no

Fill in: this test's call for "c1ccc2cc3c(cc2c1)-c1cccc2cccc-3c12" is ___
no

Per the assay record, what outcome was assigned to CC(=O)c1cc2c(cc1C)C(C)(C)C(C)CC2(C)C (stereo not given) ?
no

Assay outcome for "c1ccsc1" : what was it?
no

# lookup: test call for COCC1CO1 (stereo not given)
yes

Source listed as PubChem BioAssay AID1259407.
